System: Candida albicans ATCC 90028
So basically, if MIC comes in under 4 µM it's MET, and if it's 4 µM or more it's NOT MET.

**Query** In the record for CC[C@H](C)[C@H](NC(=O)[C@H](CCCN=C(N)N)NC(=O)[C@H](CCC(N)=O)NC(=O)[C@@H](NC(=O)[C@@H](NC(=O)[C@H](CCCN=C(N)N)NC(=O)[C@@H](N)CCCCN)[C@@H](C)CC)C(C)C)C(=O)N[C@@H](CCCCN)C(=O)N[C@@H](C)C(=O)N[C@@H](Cc1ccccc1)C(=O)N[C@@H](CC(C)C)C(=O)N[C@@H](CCCN=C(N)N)C(=O)O [KRIVQRIKAFLR] , is MIC less than 4 µM?
**Result** NOT MET

**Query** Record: CC[C@H](C)[C@H](N)C(=O)N[C@@H](CC(N)=O)C(=O)N[C@@H](Cc1c[nH]c2ccccc12)C(=O)N[C@@H](CCCCN)C(=O)N[C@@H](CCCCN)C(=O)N[C@H](C(=O)N[C@@H](C)C(=O)N[C@@H](CCCCN)C(=O)N[C@@H](CCCCN)C(=O)N[C@H](C(=O)N[C@@H](C)C(=O)NCC(=O)N[C@@H](CCSC)C(=O)N[C@@H](CC(C)C)C(N)=O)C(C)C)[C@@H](C)CC [INWKKIAKKVAGML]
**Result** NOT MET

**Query** Now consider CC[C@H](C)[C@H](NC(=O)[C@H](CCCN=C(N)N)NC(=O)[C@@H](N)CCCCN)C(=O)N[C@H](C(=O)N[C@@H](CCC(N)=O)C(=O)N[C@@H](CCCN=C(N)N)C(=O)N[C@@H](CCCCN)C(=O)N[C@@H](CCCCN)C(=O)N[C@@H](CC(=O)O)C(=O)N[C@@H](Cc1ccccc1)C(=O)N[C@@H](CC(C)C)C(=O)N[C@@H](CCCN=C(N)N)C(=O)O)C(C)C [KRIVQRKKDFLR] and answer again.
**Result** NOT MET

**Query** And for CC[C@H](C)[C@@H]1NC(=O)CNC(=O)[C@H](CCCN=C(N)N)NC(=O)[C@H](Cc2ccc(O)cc2)NC(=O)[C@@H]2CSSC[C@H](NC1=O)C(=O)N[C@@H](Cc1ccc(O)cc1)C(=O)N[C@@H](CCCN=C(N)N)C(=O)N[C@@H](C)C(=O)N[C@H](C(=O)N[C@@H](CCCN=C(N)N)C(=O)O)CSSC[C@H](NC(=O)[C@H](Cc1c[nH]c3ccccc13)NC(=O)[C@@H](N)CCCCN)C(=O)N[C@@H](Cc1ccccc1)C(=O)N[C@@H](CCCN=C(N)N)C(=O)N[C@@H](C(C)C)C(=O)N2 [KWCFRVCYRGICYRACR] ?
**Result** MET

**Query** Same lookup for CC[C@H](C)[C@H](NC(=O)[C@H](Cc1ccccc1)NC(=O)CNC(=O)[C@H](CCCCN)NC(=O)[C@@H](NC(=O)[C@H](Cc1ccccc1)NC(=O)[C@H](CCCCN)NC(=O)[C@H](CCCN=C(N)N)NC(=O)[C@@H](NC(=O)[C@@H](NC(=O)[C@H](CCCN=C(N)N)NC(=O)[C@@H](NC(=O)[C@H](C)NC(=O)[C@H](Cc1c[nH]c2ccccc12)NC(=O)[C@@H](N)CCCCN)C(C)C)[C@@H](C)CC)[C@@H](C)CC)[C@@H](C)CC)C(=O)N[C@@H](CO)C(N)=O [KWAVRIIRKFIKGFIS] , please.
**Result** MET

**Query** Try CC[C@H](C)[C@@H]1NC(=O)CNC(=O)[C@H](CCCN=C(N)N)NC(=O)[C@H](Cc2ccc(O)cc2)NC(=O)[C@@H](NC(=O)[C@@H](NC(=O)[C@H](CCCN=C(N)N)NC(=O)[C@H](Cc2ccccc2)NC(=O)[C@H](C)NC(=O)[C@H](Cc2c[nH]c3ccccc23)NC(=O)[C@@H](N)CCCCN)C(C)C)CSSC[C@@H](C(=O)N[C@@H](Cc2ccc(O)cc2)C(=O)N[C@@H](CCCN=C(N)N)C(=O)N[C@@H](CCCN=C(N)N)C(=O)N[C@@H](C)C(=O)N[C@@H](CCCN=C(N)N)C(=O)O)NC1=O [KWAFRVCYRGICYRRAR] next.
**Result** MET

**Query** Entry to check: CC[C@H](C)[C@H](NC(=O)[C@H](CCCN=C(N)N)NC(=O)[C@H](CCC(N)=O)NC(=O)[C@@H](NC(=O)[C@H](CCCCN)NC(=O)[C@H](CCCN=C(N)N)NC(=O)[C@@H](N)CCCCN)C(C)C)C(=O)N[C@@H](CCCCN)C(=O)N[C@@H](CC(=O)O)C(=O)N[C@@H](Cc1ccccc1)C(=O)N[C@@H](CC(C)C)C(=O)N[C@@H](CCCN=C(N)N)C(=O)O [KRKVQRIKDFLR]
**Result** NOT MET

**Query** Also check CC[C@H](C)[C@H](NC(=O)CNC(=O)[C@H](CO)NC(=O)[C@H](C)NC(=O)[C@@H](N)Cc1ccccc1)C(=O)N[C@@H](C)C(=O)NCC(=O)N[C@@H](CCSC)C(=O)N[C@@H](C)C(=O)NCC(=O)N[C@@H](CCCCN)C(=O)N[C@@H](CC(C)C)C(=O)N[C@@H](Cc1ccccc1)C(N)=O [FASGIAGMAGKLF]
**Result** NOT MET

**Query** Please give the result for CC[C@H](C)[C@H](NC(=O)[C@H](CO)NC(=O)[C@@H](NC(=O)[C@H](CCCCN)NC(=O)[C@H](Cc1ccccc1)NC(=O)[C@@H]1CCCN1)[C@@H](C)CC)C(=O)N[C@@H](Cc1cnc[nH]1)C(=O)N[C@@H](CC(C)C)C(N)=O [PFKISIHL] too.
**Result** NOT MET

**Query** Now the same for CC[C@H](C)[C@@H]1NC(=O)CNC(=O)[C@H](CCCN=C(N)N)NC(=O)[C@H](Cc2ccc(O)cc2)NC(=O)[C@@H]2CSSC[C@H](NC1=O)C(=O)N[C@@H](Cc1ccc(O)cc1)C(=O)N[C@@H](CCCN=C(N)N)C(=O)N[C@@H](CCCN=C(N)N)C(=O)N[C@H](C(=O)N[C@@H](CCCN=C(N)N)C(=O)O)CSSC[C@H](NC(=O)[C@H](Cc1c[nH]c3ccccc13)NC(=O)[C@@H](N)CCCCN)C(=O)N[C@@H](Cc1ccccc1)C(=O)N[C@@H](C)C(=O)N[C@@H](C(C)C)C(=O)N2 [KWCFAVCYRGICYRRCR]
**Result** MET

---

Tested on: Cronobacter sakazakii DPC 6440
measure.name: MIC

**Query** MIC lookup needed for CC[C@H](C)[C@H](NC(=O)[C@@H](N)Cc1c[nH]c2ccccc12)C(=O)N[C@@H](CCC(N)=O)C(=O)N1CCC[C@H]1C(=O)N[C@@H](C)C(=O)N[C@H](C(=O)N[C@@H](CCCCN)C(=O)N[C@H](C(=O)N[C@H](C(=O)N1CCC[C@H]1C(=O)N[C@@H](Cc1ccc(O)cc1)C(=O)N[C@H](C(=O)N[C@@H](CCCN=C(N)N)C(=O)N[C@@H](Cc1ccc(O)cc1)C(=O)N[C@@H](CC(C)C)C(=O)O)C(C)C)[C@@H](C)CC)C(C)C)[C@@H](C)O [WIQPATKVIPYVRYL] , thanks.
**Result** ≥ 156 µM

**Query** Request: CC[C@H](C)[C@H](N)C(=O)N[C@@H](CCCCN)C(=O)N[C@@H](Cc1cnc[nH]1)C(=O)N[C@@H](CCC(N)=O)C(=O)NCC(=O)N[C@@H](CC(C)C)C(=O)N1CCC[C@H]1C(=O)N[C@@H](CCC(N)=O)C(=O)N[C@@H](CCC(=O)O)C(=O)N[C@@H](CC(=O)O)C(=O)O [IKHQGLPQED]
**Result** ≥ 625 µM

**Query** Next: CC[C@H](C)[C@H](N)C(=O)N[C@@H](CCCCN)C(=O)N[C@@H](Cc1cnc[nH]1)C(=O)N[C@@H](CCC(N)=O)C(=O)NCC(=O)N[C@@H](CC(C)C)C(=O)N1CCC[C@H]1C(=O)N[C@@H](CCC(N)=O)C(=O)N[C@@H](CCC(=O)O)C(=O)O [IKHQGLPQE]
**Result** ≥ 625 µM

**Query** Next entry: CC(C)C[C@H](NC(=O)[C@@H](N)C(C)C)C(=O)N[C@@H](CC(N)=O)C(=O)N[C@@H](CCC(=O)O)C(=O)N[C@@H](CC(N)=O)C(=O)N[C@@H](C)C(=O)N[C@@H](C)C(=O)N[C@@H](CCCN=C(N)N)C(=O)O [VLNENAAR]
**Result** ≥ 1250 µM

---

Tested on: Staphylococcus aureus
For each entry below, report its MIC value.
Quick reminder: number only, in µM, skip the unit.

**Query** Can you look up the measured MIC of CC[C@H](C)[C@H](NC(=O)[C@H](CCCCN)NC(=O)[C@H](CCCCN)NC(=O)[C@H](Cc1c[nH]c2ccccc12)NC(=O)[C@H](CC(N)=O)NC(=O)[C@@H](N)C(C)C)C(=O)N[C@@H](CC(C)C)C(=O)N[C@@H](CCCCN)C(=O)N[C@@H](CCCCN)C(=O)N[C@H](C(=O)N[C@H](C(=O)N[C@@H](CCCCN)C(=O)N[C@H](C(=O)N[C@H](C(=O)N[C@@H](CCCCN)C(N)=O)C(C)C)C(C)C)[C@@H](C)CC)[C@@H](C)CC for me?
**Result** 9.6

**Query** Entry to check: CC[C@H](C)[C@H](NC(=O)[C@H](C)NC(=O)[C@H](CCCCN)NC(=O)[C@H](Cc1c[nH]c2ccccc12)NC(=O)[C@H](CC(N)=O)NC(=O)[C@@H](N)CCCCN)C(=O)N[C@@H](CC(C)C)C(=O)N[C@@H](CCCCN)C(=O)N[C@@H](Cc1cnc[nH]1)C(=O)N[C@H](C(=O)N[C@H](C(=O)N[C@@H](CCCCN)C(N)=O)[C@@H](C)CC)[C@@H](C)CC
**Result** 65
